- System Under Test: bdSUMO Mut12-MBP fusion protein
Measured cleavage of the SUMO fusion protein accompanies every entry in the list below.

Below: 2 proteins and their reported cleavage of the SUMO fusion protein.
Protein	cleavage of the SUMO fusion protein
bdSENP1^MutH (protein) PFVPLTDEDEDNVRHALGGRKPSETLSVHEASAIVITREILQCLNDKEWLNDEVINLYLELLKERELREPNKFLKCHFFNTFFYKKLINGYDYKSVREWTTMRKLGYNLIDCDKIFVPIHKDVHWCLAVINIKEKKFQYLDSLGYMDMKALRILAKYLVDEVKDKSGKQIDVHAWKQEGVQNLPLQENGWDCGMFMLKYIDFYSRDMELVFGQKHMSYFRRRTAKEILDLKAG	100 % cleavage
bdSENP1^MutJ (protein) PFVPLTDEDEDNVRHALGGRKESETLSVHEASSIVITREILQCLNDKEWLNDEVINLYLELLKERELREPNKFLKCHFFNTFFYKKLINGGYDYKSVRSWTTTRKLGYNLIDCDKIFVPIHKDVHWCLAVINIKEKKFQYLDSLGYMDMKALRILAKYLVDEVKDKSGKQIDVHAWKQEGVQNLPLQENGWDCGMFMLKYIDFYSRDMELVFGQKHMSYFRRRTAKEILDLKAG	< 50 % cleavage

Dear colleague, please send me the reported cleavage of the SUMO fusion protein for bdSENP1^MutG (protein) PFVPLTDEDEDNVRHALGGRKSSETLSVHEASHIVITREILQCLNDKEWLNDEVINLYLELLKERELREPNKFLKCHFFNTFFYKKLINGGYDYKSVRRWTTVKLGYNLIDCDKIFVPIHKDVHWCLAVINIKEKKFQYLDSLGYMDMKALRILAKYLVDEVKDKSGKQIDVHAWKQEGVQNLPLQENGWDCGMFMLKYIDFYSRDMELVFGQKHMSYFRRRTAKEILDLKAG when you can.
< 50 % cleavage

Determine its reported cleavage of the SUMO fusion protein: bdSENP1 from B. distachyon (protein) PFVPLTDEDEDNVRHALGGRKRSETLSVHEASNIVITREILQCLNDKEWLNDEVINLYLELLKERELREPNKFLKCHFFNTFFYKKLINGGYDYKSVRRWTTKRKLGYNLIDCDKIFVPIHKDVHWCLAVINIKEKKFQYLDSLGYMDMKALRILAKYLVDEVKDKSGKQIDVHAWKQEGVQNLPLQENGWDCGMFMLKYIDFYSRDMELVFGQKHMSYFRRRTAKEILDLKAG
< 25 % cleavage
